Ref: ChEMBL document CHEMBL1141470

Measured pIC50 values are reported for all entries that follow.
# Test system: HCT-116
# experimental_protocol: Cytotoxicity against human HCT116 cells by MTT assay
# Assay type: functional, cell-based
Please note pIC50 is a logarithmic value: minus log10 of concentration in mol/L. Answer with that number alone.

Item "Nc1ccccc1NC(=O)c1ccc(CSc2nc3ccc(NCCN4CCOCC4)cc3s2)cc1" with HCT-116 - pIC50? 6.70

Let us now turn to "COc1ccc2nc(NCc3ccc(C(=O)Nc4ccccc4N)cc3)sc2c1" 6.70

* * *

# assay_system: Histone deacetylase 1 (Homo sapiens, UniProt Q13547)
# Sequence (Q13547 whole entry): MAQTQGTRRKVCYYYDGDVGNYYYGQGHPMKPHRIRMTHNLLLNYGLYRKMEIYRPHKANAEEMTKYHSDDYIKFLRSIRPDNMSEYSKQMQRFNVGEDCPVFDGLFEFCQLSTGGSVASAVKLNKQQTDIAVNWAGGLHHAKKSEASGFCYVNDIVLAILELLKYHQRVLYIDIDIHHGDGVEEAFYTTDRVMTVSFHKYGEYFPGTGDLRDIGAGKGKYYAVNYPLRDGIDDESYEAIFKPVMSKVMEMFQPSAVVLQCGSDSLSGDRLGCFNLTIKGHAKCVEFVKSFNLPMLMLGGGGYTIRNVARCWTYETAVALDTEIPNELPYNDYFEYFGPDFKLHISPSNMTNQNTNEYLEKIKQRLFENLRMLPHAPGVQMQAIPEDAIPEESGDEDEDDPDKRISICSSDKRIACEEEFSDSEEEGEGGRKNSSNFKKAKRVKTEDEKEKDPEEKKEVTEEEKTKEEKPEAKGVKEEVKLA
# experimental_protocol: Inhibition of HDAC1 in human T24 cells assessed as induction of histone H4 acetylation after 16 hrs relative to MS-275
parameter_measured: EC50 (µM)
Field: numeric (µM). Do not append units.

Some compounds with known EC50 results, for comparison:
smi=Nc1ccccc1NC(=O)c1ccc(CSc2nc3ccc(NCc4cccnc4)cc3s2)cc1 parameter_measured=EC50 uom=µM obs_value=2
smi=COc1ccc2nc(SCc3ccc(C(=O)Nc4ccccc4N)cc3)[nH]c2c1 parameter_measured=EC50 uom=µM obs_value=1
smi=Nc1ccccc1NC(=O)c1ccc(CNc2nc3cc(Cl)ccc3o2)cc1 parameter_measured=EC50 uom=µM obs_value=1
smi=Nc1ccccc1NC(=O)c1ccc(CNc2nc3ccccc3[nH]2)cc1 parameter_measured=EC50 uom=µM obs_value=1
smi=Nc1ccccc1NC(=O)c1ccc(CSc2nc3ccccc3s2)cc1 parameter_measured=EC50 uom=µM obs_value=3
smi=Nc1ccccc1NC(=O)c1ccc(CNc2nc3ccc(OCCN4CCOCC4)cc3s2)cc1 parameter_measured=EC50 uom=µM obs_value=1
smi=COc1ccc2nc(NCc3ccc(C(=O)Nc4ccccc4N)cc3)sc2c1 parameter_measured=EC50 uom=µM obs_value=1
smi=Nc1ccccc1NC(=O)c1ccc(CNc2nc3ccc(Br)cc3s2)cc1 parameter_measured=EC50 uom=µM obs_value=2

Reported EC50 for "Nc1ccccc1NC(=O)c1ccc(CSc2nc3ccc(NCCN4CCOCC4)cc3s2)cc1" : what is it? 5

Let us now turn to "Nc1ccccc1NC(=O)c1ccc(CSc2nc3ccc(NCc4ccccn4)cc3s2)cc1" 3
